Values compiled from ChEMBL document CHEMBL1154182.

Target: Delta-type opioid receptor (Rattus norvegicus, UniProt P33533)
Sequence (P33533 whole entry): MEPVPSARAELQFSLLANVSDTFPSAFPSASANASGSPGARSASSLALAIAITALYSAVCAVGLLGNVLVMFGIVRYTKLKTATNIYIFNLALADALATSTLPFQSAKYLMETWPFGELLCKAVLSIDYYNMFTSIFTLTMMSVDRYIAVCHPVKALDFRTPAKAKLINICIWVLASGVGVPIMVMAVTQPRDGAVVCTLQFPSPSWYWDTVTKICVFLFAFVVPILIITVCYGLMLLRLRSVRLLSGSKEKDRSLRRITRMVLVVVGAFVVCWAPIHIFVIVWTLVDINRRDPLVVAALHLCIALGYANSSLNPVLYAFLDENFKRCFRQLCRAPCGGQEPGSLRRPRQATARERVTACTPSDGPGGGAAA
Experiment: Displacement of [3H]diprenorphine from rat delta opioid receptor expressed in rat C6 cells after 1 hr by liquid scintillation counting
Format: cell-based
Numbered stars: 1 amine (or outer) side, 2 acyl side, 3 side chain; on linkers, the order of the positions; unused ones are H or OH. Bridge positions count the residues as written; N and C are the ends. Square brackets hold non-standard residues; d marks the D form. Peptide text beside a SMILES is read from it. 1Nal = N[C@@H](Cc1cccc2ccccc12)C(=O)O; 2Nal = N[C@@H](Cc1ccc2ccccc2c1)C(=O)O; CH2 = C([*:1])[*:2]
parameter: Ki (nM)

compound: NC(=O)[C@@H]1CSSC[C@@H](NC(=O)[C@@H](N)Cc2ccc(O)cc2)C(=O)N[C@@H](Cc2ccccc2)C(=O)N[C@@H](Cc2cccc3ccccc23)C(=O)N1 (H-Y[dC]F[1Nal]C-NH2; disulfide 2-5)
value measured: 7.1
--
compound: NC(=O)[C@@H]1CSCSC[C@@H](NC(=O)[C@@H](N)Cc2ccc(O)cc2)C(=O)N[C@@H](Cc2ccc3ccccc3c2)C(=O)N[C@@H](Cc2ccccc2)C(=O)N1 (H-Y[dC][2Nal]FC-NH2; linker 2-5 via CH2)
value measured: 15
--
compound: NC(=O)[C@@H]1CSCSC[C@@H](NC(=O)[C@@H](N)Cc2ccc(O)cc2)C(=O)N[C@@H](Cc2ccccc2)C(=O)N[C@@H](Cc2cccc3ccccc23)C(=O)N1 (H-Y[dC]F[1Nal]C-NH2; linker 2-5 via CH2)
value measured: 5.2
